Hey, just so you know, these numbers are from patent US20160237059A1.

measurement target: murine CCR2 (Mus musculus)
Construct: host or cells: U2OS β-arrestin cell line
Sequence (P51683 whole entry): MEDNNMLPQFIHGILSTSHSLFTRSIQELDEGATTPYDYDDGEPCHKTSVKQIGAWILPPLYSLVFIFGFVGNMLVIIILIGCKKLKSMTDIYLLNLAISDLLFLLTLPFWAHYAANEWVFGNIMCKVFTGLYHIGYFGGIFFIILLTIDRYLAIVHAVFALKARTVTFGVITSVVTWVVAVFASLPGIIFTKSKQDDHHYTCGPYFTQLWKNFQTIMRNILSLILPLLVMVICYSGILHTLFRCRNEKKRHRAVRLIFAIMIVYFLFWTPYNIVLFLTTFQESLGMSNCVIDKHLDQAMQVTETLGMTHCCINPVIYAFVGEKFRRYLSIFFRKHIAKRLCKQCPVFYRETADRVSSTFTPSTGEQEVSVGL
protocol details: Functional β-arrestin recruiting test with murine MCP-1 (B-2b)
Assay type: cell-based
reported conditions: U2OS β-arrestin cell line transfected with murine CCR2; agonist murine MCP-1; in some cases means of several determinations
measured endpoint: IC50 (nM)
Just the number in nM, nothing appended.

IC50 for "O=c1[nH]c(-c2ncon2)nc(C(F)(F)F)c1Oc1ccc(Cl)c(Cl)c1" ?
195

Here is the next molecule: "CC(=O)Nc1ccc(-c2nc(C(F)(F)F)c(Oc3ccc(Cl)c(Cl)c3)c(=O)[nH]2)nc1"
212

Here is the next molecule: "COc1ccc2c(-c3nc(C(F)(F)F)c(Oc4ccc(Cl)c(C(F)(F)F)c4)c(=O)[nH]3)noc2c1"
4490

Here is the next molecule: "COc1nn(C)cc1-c1nc(C(F)(F)F)c(Oc2ccc(Cl)c(C(F)(F)F)c2)c(=O)[nH]1"
796
